Reference for the values: patent US4956357A

# ASSAY_NOTES: Solubility in sesame oil
# Type: physicochemical
# RECORDED_CONDITIONS: organic solvent or mixture, 37° C., limit of solubility
OBSERVABLE: solubility (mg/mL)
Give the value in mg/mL but do not write mg/mL after it.

Incoming: // solubility lookup, key: CCCCCCC(=O)O[C@H]1CC[C@H]2[C@@H]3CC[C@H]4CC(=O)CC[C@]4(C)[C@H]3CC[C@]12C [DHT-hep, dihydrotestosterone heptanoate]
Outgoing: 190
